biological target: hSSB2 (C-terminally His-tagged) (Homo sapiens, UniProt Q96AH0 1-204); assay: fluorescence anisotropy; no MgCl2; Hill n 1.1; Anisotropy: standard LLPS buffer without MgCl2 (50 mM KCl standard), 25 C, 10 nM probe; EMSA: standard LLPS buffer (50 mM KCl, 10 mM MgCl2), 50 nM probe, 1% agarose; buffer species and pH not in the material; conditions: protein: recombinant; tags: C-terminal His; label: 3'-fluorescein; single strand
Sequence (Q96AH0 whole entry): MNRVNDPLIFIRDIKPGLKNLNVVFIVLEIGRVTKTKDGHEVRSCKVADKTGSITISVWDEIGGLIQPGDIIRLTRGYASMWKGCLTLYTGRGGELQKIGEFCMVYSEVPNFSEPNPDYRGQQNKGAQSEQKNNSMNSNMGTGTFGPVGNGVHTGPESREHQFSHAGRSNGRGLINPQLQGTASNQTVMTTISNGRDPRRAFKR
value-type: Kd (nM)
Please respond with the number in nM and leave the unit unwritten.

Which Kd value is on record for ss54 DNA (ssDNA) DNA: TCCTTTTGATAAGAGGTCATTTTTGCGGATGGCTTAGAGCTTAATTGCGCAACG ?
87
